assay: clinical; conditions: male, human, in vivo, sc, 360 mg
Where a SMILES comes first, the peptide text is derived from it. [ ]: non-standard residue; d: D form. The star is where a group is joined. dPhe(4-NHCONH2) = NC(=O)Nc1ccc(C[C@@H](N)C(=O)O)cc1; Dihydroorotyl(S) = O=C1C[C@@H](C(=O)*)NC(=O)N1; dPhe(4-Cl) = N[C@H](Cc1ccc(Cl)cc1)C(=O)O; Phe(4-NH2) = Nc1ccc(C[C@H](N)C(=O)O)cc1; d2Nal = N[C@H](Cc1ccc2ccccc2c1)C(=O)O; Lys(iPr) = CC(C)NCCCC[C@H](N)C(=O)O; d3Pal = N[C@H](Cc1cccnc1)C(=O)O

>  <compound>
CC(=O)N[C@H](Cc1ccc2ccccc2c1)C(=O)N[C@H](Cc1ccc(Cl)cc1)C(=O)N[C@H](Cc1cccnc1)C(=O)N[C@@H](CO)C(=O)N[C@@H](Cc1ccc(NC(=O)[C@@H]2CC(=O)NC(=O)N2)cc1)C(=O)N[C@H](Cc1ccc(NC(N)=O)cc1)C(=O)N[C@@H](CC(C)C)C(=O)N[C@@H](CCCCNC(C)C)C(=O)N1CCC[C@H]1C(=O)N[C@H](C)C(N)=O [Degarelix] (Ac-[d2Nal][dPhe(4-Cl)][d3Pal]S[Phe(4-NH2)](Dihydroorotyl(S))[dPhe(4-NHCONH2)]L[Lys(iPr)]P[dA]-NH2)

>  <level at 1 year>
~10 ng/mL

$$$$

----------
assay: clinical; conditions: human, in vivo
Where a SMILES comes first, the peptide text is derived from it. [ ]: non-standard residue; d: D form. The star is where a group is joined. dPhe(4-NHCONH2) = NC(=O)Nc1ccc(C[C@@H](N)C(=O)O)cc1; Dihydroorotyl(S) = O=C1C[C@@H](C(=O)*)NC(=O)N1; dPhe(4-Cl) = N[C@H](Cc1ccc(Cl)cc1)C(=O)O; Phe(4-NH2) = Nc1ccc(C[C@H](N)C(=O)O)cc1; d2Nal = N[C@H](Cc1ccc2ccccc2c1)C(=O)O; Lys(iPr) = CC(C)NCCCC[C@H](N)C(=O)O; d3Pal = N[C@H](Cc1cccnc1)C(=O)O
endpoint-label: level at 672 h (ng/mL)

>  <compound>
CC(=O)N[C@H](Cc1ccc2ccccc2c1)C(=O)N[C@H](Cc1ccc(Cl)cc1)C(=O)N[C@H](Cc1cccnc1)C(=O)N[C@@H](CO)C(=O)N[C@@H](Cc1ccc(NC(=O)[C@@H]2CC(=O)NC(=O)N2)cc1)C(=O)N[C@H](Cc1ccc(NC(N)=O)cc1)C(=O)N[C@@H](CC(C)C)C(=O)N[C@@H](CCCCNC(C)C)C(=O)N1CCC[C@H]1C(=O)N[C@H](C)C(N)=O [Degarelix] (Ac-[d2Nal][dPhe(4-Cl)][d3Pal]S[Phe(4-NH2)](Dihydroorotyl(S))[dPhe(4-NHCONH2)]L[Lys(iPr)]P[dA]-NH2)

>  <unit-spec>
ng/mL

>  <result>
7.34

$$$$

----------
experiment: clinical; conditions: male, human, in vivo, sc, 480 mg
Where a SMILES comes first, the peptide text is derived from it. [ ]: non-standard residue; d: D form. The star is where a group is joined. dPhe(4-NHCONH2) = NC(=O)Nc1ccc(C[C@@H](N)C(=O)O)cc1; Dihydroorotyl(S) = O=C1C[C@@H](C(=O)*)NC(=O)N1; dPhe(4-Cl) = N[C@H](Cc1ccc(Cl)cc1)C(=O)O; Phe(4-NH2) = Nc1ccc(C[C@H](N)C(=O)O)cc1; d2Nal = N[C@H](Cc1ccc2ccccc2c1)C(=O)O; Lys(iPr) = CC(C)NCCCC[C@H](N)C(=O)O; d3Pal = N[C@H](Cc1cccnc1)C(=O)O

>  <compound>
CC(=O)N[C@H](Cc1ccc2ccccc2c1)C(=O)N[C@H](Cc1ccc(Cl)cc1)C(=O)N[C@H](Cc1cccnc1)C(=O)N[C@@H](CO)C(=O)N[C@@H](Cc1ccc(NC(=O)[C@@H]2CC(=O)NC(=O)N2)cc1)C(=O)N[C@H](Cc1ccc(NC(N)=O)cc1)C(=O)N[C@@H](CC(C)C)C(=O)N[C@@H](CCCCNC(C)C)C(=O)N1CCC[C@H]1C(=O)N[C@H](C)C(N)=O [Degarelix] (Ac-[d2Nal][dPhe(4-Cl)][d3Pal]S[Phe(4-NH2)](Dihydroorotyl(S))[dPhe(4-NHCONH2)]L[Lys(iPr)]P[dA]-NH2)

>  <level at 1 year>
~13 ng/mL

$$$$

----------
experiment: clinical; settings: human, in vivo
Where a SMILES comes first, the peptide text is derived from it. [ ]: non-standard residue; d: D form. The star is where a group is joined. dPhe(4-NHCONH2) = NC(=O)Nc1ccc(C[C@@H](N)C(=O)O)cc1; Dihydroorotyl(S) = O=C1C[C@@H](C(=O)*)NC(=O)N1; dPhe(4-Cl) = N[C@H](Cc1ccc(Cl)cc1)C(=O)O; Phe(4-NH2) = Nc1ccc(C[C@H](N)C(=O)O)cc1; d2Nal = N[C@H](Cc1ccc2ccccc2c1)C(=O)O; Lys(iPr) = CC(C)NCCCC[C@H](N)C(=O)O; d3Pal = N[C@H](Cc1cccnc1)C(=O)O
endpoint-label: level at 2016 h (ng/mL)

>  <compound>
CC(=O)N[C@H](Cc1ccc2ccccc2c1)C(=O)N[C@H](Cc1ccc(Cl)cc1)C(=O)N[C@H](Cc1cccnc1)C(=O)N[C@@H](CO)C(=O)N[C@@H](Cc1ccc(NC(=O)[C@@H]2CC(=O)NC(=O)N2)cc1)C(=O)N[C@H](Cc1ccc(NC(N)=O)cc1)C(=O)N[C@@H](CC(C)C)C(=O)N[C@@H](CCCCNC(C)C)C(=O)N1CCC[C@H]1C(=O)N[C@H](C)C(N)=O [Degarelix] (Ac-[d2Nal][dPhe(4-Cl)][d3Pal]S[Phe(4-NH2)](Dihydroorotyl(S))[dPhe(4-NHCONH2)]L[Lys(iPr)]P[dA]-NH2)

>  <endpoint-label>
level at 2016 h

>  <unit-spec>
ng/mL

>  <result>
4.54

$$$$
